- assay.system: β-secretase(BACE) (Homo sapiens, UniProt P56817)
- Construct: purchased Panvera
- Sequence (P56817 46-501): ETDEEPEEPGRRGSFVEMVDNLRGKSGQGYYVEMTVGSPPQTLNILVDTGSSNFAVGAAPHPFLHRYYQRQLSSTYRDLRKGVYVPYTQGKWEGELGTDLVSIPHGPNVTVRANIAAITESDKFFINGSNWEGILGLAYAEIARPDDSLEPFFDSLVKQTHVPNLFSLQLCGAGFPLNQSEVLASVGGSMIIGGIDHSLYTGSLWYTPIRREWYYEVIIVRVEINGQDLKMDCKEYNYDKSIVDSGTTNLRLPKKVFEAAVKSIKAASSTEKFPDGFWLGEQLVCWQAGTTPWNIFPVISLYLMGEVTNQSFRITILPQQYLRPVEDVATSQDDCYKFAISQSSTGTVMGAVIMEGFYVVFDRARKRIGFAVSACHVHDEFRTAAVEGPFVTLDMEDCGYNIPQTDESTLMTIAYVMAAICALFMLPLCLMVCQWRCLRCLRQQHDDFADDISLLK
- measurement.notes: BACE FS1% Inhibition Assay
- Format: biochemical
- measurement.parameters: 1 μM test compound; FS1 substrate; read-out: % Inhibition (FS) 1 μM
Label scheme for inhibition at 1 µM: lower than 90% is No, 90% and above is Yes.

# example entries with known answers
{"compound": "CC(=O)Nc1ccccc1-c1ccc2c(c1)CN(Cc1cccc(C(=O)N(C)C3CCCCC3)c1)C(N)=N2 [Compound 328]", "class.assignment": "No"}
{"compound": "NC1=Nc2ccc(-c3ccccc3Cl)cc2CN1CCNC(=O)C1CCCCC1 [Compound 536]", "class.assignment": "No"}
{"compound": "Cc1ccc(C(CCC(=O)N(C)C2CCCCC2)N2Cc3cc(Oc4ccccc4)ccc3N=C2N)cc1 (stereo not shown) [Compound 421]", "class.assignment": "No"}

Please indicate if the recorded inhibition at 1 µM for Cc1ccccc1-c1ccc2c(c1)CN(CCNC(=O)C1CCCCC1)C(N)=N2 [Compound 537] meets or exceeds 90%.
Yes

Please indicate if the recorded inhibition at 1 µM for CC(C)CCC(=O)NCCN1Cc2cc(-c3ccccc3F)ccc2N=C1N [Compound 647] meets or exceeds 90%.
Yes

Please indicate if the recorded inhibition at 1 µM for NC1=Nc2ccc(Oc3ccccc3)cc2CN1CCNC(=O)NC1CCCCC1 [Compound 215] meets or exceeds 90%.
No

Please indicate if the recorded inhibition at 1 µM for NC1=Nc2ccc(Oc3ccccc3)cc2CN1CCC(=O)NC1CCCCC1 [Compound 178] meets or exceeds 90%.
Yes

Please indicate if the recorded inhibition at 1 µM for CN(C(=O)c1cccc(CN2Cc3cc(-c4cccc5ccccc45)ccc3N=C2N)c1)C1CCCCC1 [Compound 330] meets or exceeds 90%.
No

Please indicate if the recorded inhibition at 1 µM for NC1=Nc2ccc(Oc3ccccc3)cc2CN1Cc1cccc(C(=O)N(C2CCCCC2)C2CCCCC2)c1 [Compound 98] meets or exceeds 90%.
Yes

Please indicate if the recorded inhibition at 1 µM for COc1ccc(C(CCC(=O)N(C)C2CCCCC2)N2Cc3cc(Oc4ccccc4)ccc3N=C2N)cc1 (stereo not shown) [Compound 298] meets or exceeds 90%.
No

Please indicate if the recorded inhibition at 1 µM for NC1=Nc2ccc(Oc3ccccc3)cc2CN1CCC(=O)NC1C2CC3CC(C2)CC1C3 (stereo not shown) [Compound 221] meets or exceeds 90%.
Yes

Please indicate if the recorded inhibition at 1 µM for CN(C(=O)c1cccc(CN2Cc3cc(Sc4ccccc4)ccc3N=C2N)c1)C1CCCCC1 [Compound 476] meets or exceeds 90%.
No

Please indicate if the recorded inhibition at 1 µM for Cc1ccccc1Oc1ccc2c(c1)CN(Cc1cccc(C(=O)N(C)C3CCCCC3)c1)C(N)=N2 [Compound 293] meets or exceeds 90%.
No

Please indicate if the recorded inhibition at 1 µM for CC(C)N(C(=O)CCN1Cc2cc(Oc3ccccc3)ccc2N=C1N)C1CCCCC1 [Compound 179] meets or exceeds 90%.
No

Please indicate if the recorded inhibition at 1 µM for COc1ccc(NC(=O)C(C)(C)C)c(-c2ccc3c(c2)CN(Cc2cccc(C(=O)N(C)C4CCCCC4)c2)C(N)=N3)c1 [Compound 160] meets or exceeds 90%.
No

Please indicate if the recorded inhibition at 1 µM for CC(C)CCOc1ccc2c(c1)CN(Cc1cccc(C(=O)N(C)C3CCCCC3)c1)C(N)=N2 [Compound 517] meets or exceeds 90%.
No

Please indicate if the recorded inhibition at 1 µM for CN(C(=O)c1cccc(CN2Cc3cc(-c4ccccc4C(F)(F)F)ccc3N=C2N)c1)C1CCCCC1 [Compound 268] meets or exceeds 90%.
No

Please indicate if the recorded inhibition at 1 µM for CCCCC(CC)C(=O)NCC(C1CCCCC1)N1Cc2cc(Oc3ccccc3)ccc2N=C1N (stereo not shown) [Compound 303] meets or exceeds 90%.
No

Please indicate if the recorded inhibition at 1 µM for COC1CCCC(C(=O)NCCN2Cc3cc(Oc4ccccc4)ccc3N=C2N)C1 (stereo not shown) [Compound 219] meets or exceeds 90%.
No

Please indicate if the recorded inhibition at 1 µM for NC1=Nc2ccc(Oc3ccccc3)cc2CN1C(CNC(=O)C1CCCCC1)C1CCCCC1 (stereo not shown) [Compound 294] meets or exceeds 90%.
Yes

Please indicate if the recorded inhibition at 1 µM for Cc1ccccc1-c1ccc2c(c1)CN(Cc1cccc(C(=O)N(C)C3CCCCC3)c1)C(N)=N2 [Compound 261] meets or exceeds 90%.
No

Please indicate if the recorded inhibition at 1 µM for CN(C(=O)c1cccc(CN2Cc3cc(Nc4ccccc4)ccc3N=C2N)c1)C1CCCCC1 [Compound 432] meets or exceeds 90%.
No
